# experimental_system: 生物素化的SARS-CoV-2 RBD (SARS-CoV-2, UniProt P0DTC2 319-541)
# experiment_summary: ELISA screen, Fab culture supernatant on streptavidin-captured biotinylated RBD
measured_quantity: binding result

binder	reported_result
CB6-34 (轻链突变库克隆) (Fab, V domains shown, also called CB6-34-VL; CB6-34-LC) VH: EVQLVESGGGLVQPGGSLRLSCAASGFTVSSNYMSWVRQAPGKGLEWVSVIYSGGSTFYADSVKGRFTISRDNSMNTLFLQMNSLRAEDTAVYYCARVLPMYGDYLDYWGQGTLVTVSS VL: DIVMTQSPSSLSASVGDRVTITCRASQSILQYLNWYQQKPGKAPKLLIYAASSLQSGVPSRFSGSGSGTDFTLTISSLQPEDFATYYCQQSSSPVPEYTFGQGTKLEIK	binds
CB6-30 (轻链突变库克隆) (Fab, V domains shown, also called CB6-30-VL; CB6-30-LC) VH: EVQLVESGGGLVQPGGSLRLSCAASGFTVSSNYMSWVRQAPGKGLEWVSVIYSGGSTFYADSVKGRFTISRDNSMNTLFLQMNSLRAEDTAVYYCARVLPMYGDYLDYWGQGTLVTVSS VL: DIVMTQSPSSLSASVGDRVTITCRASQWILPYLNWYQQKPGKAPKLLIYAASSLQSGVPSRFSGSGSGTDFTLTISSLQPEDFATYYCQQSSSSTPEYTFGQGTKLEIK	binds
CB6-29 (轻链突变库克隆) (Fab, V domains shown, also called CB6-29-VL; CB6-29-LC) VH: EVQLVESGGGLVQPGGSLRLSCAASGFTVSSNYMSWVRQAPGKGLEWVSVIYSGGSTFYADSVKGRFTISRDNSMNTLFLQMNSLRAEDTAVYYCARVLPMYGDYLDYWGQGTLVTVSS VL: DIVMTQSPSSLSASVGDRVTITCRASQMILPYLNWYQQKPGKAPKLLIYAASSLQSGVPSRFSGSGSGTDFTLTISSLQPEDFATYYCQQSSSAKPEYTFGQGTKLEIK	binds
